B1: FANCE (parent)
chain: AQVLMLGQILELPWKEETFLVLQS

# Variants of: B1
# assayDetails: protein stability index of a GFP-peptide fusion (GPS, HEK-293T) (PSI 1-6); higher = more stable;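 note: lentivirally expressed fusions sorted by FACS into six bins by GFP to DsRed ratio, PSI derived from sequencing read proportions per bin multiplied by bin number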
# conditionDescription: c terminus: a fixed tail appended
measurementName: protein stability index

[[record]]
chain = "AQVLMLGQILELPWKEETFHVLQS [L20H]"
experimentalvalue = 2.03

[[record]]
chain = "AQVLDLGQILELPWKEETFLVLQS [M5D]"
experimentalvalue = 1.95

[[record]]
chain = "AQVLMLGQILELPWKRETFLVLQS [E16R]"
experimentalvalue = 1.97

[[record]]
chain = "AQVLMLGQIMELPWKEETFLVLQS [L10M]"
experimentalvalue = 2.01

[[record]]
chain = "AQVLMLGQILELPWDEETFLVLQS [K15D]"
experimentalvalue = 2.01

